SYSTEM_NAME: Recombinant STAT6 protein (STAT6 (W123-T658)) (Homo sapiens, UniProt P42226)
Construct: Recombinant STAT6 protein (STAT6 (W123-T658))
Sequence (P42226 123-658): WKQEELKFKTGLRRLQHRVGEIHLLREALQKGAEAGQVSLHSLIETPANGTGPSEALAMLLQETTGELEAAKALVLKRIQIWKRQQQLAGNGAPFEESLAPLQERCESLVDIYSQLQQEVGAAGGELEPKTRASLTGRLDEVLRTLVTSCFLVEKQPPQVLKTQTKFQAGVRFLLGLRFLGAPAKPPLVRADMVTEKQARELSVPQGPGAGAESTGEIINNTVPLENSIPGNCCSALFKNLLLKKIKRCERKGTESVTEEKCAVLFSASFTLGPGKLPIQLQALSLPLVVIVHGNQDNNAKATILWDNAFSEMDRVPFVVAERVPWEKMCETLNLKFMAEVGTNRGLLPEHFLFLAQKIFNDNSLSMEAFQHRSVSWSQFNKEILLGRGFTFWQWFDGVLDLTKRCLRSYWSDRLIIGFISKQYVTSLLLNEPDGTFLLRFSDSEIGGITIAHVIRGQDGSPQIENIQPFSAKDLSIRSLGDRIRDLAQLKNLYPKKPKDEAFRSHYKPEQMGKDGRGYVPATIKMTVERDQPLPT
ASSAY_REMARKS: STAT6 Fluorescence Polarization (FP) Assay
Format: binding
COND: STAT6 (W123-T658) 250 nM, probe 5-FAM-Ap[…]-NH2 2 nM, 45-minute incubation; read-out: STAT6 (FP assay IC50 class)
pIC50: −log10 of the molar value.
MEASUREMENT_TYPE: pIC50

Below, 4 compounds whose answers are already recorded.
COMPOUND	REPORTED_RESULT
CC(C)n1ccc(N2C(=O)N(C(=O)[C@@H]3CC[C@@H]4CCCC[C@H](NC(=O)c5cc6cc(C(F)P(=O)(O)O)ccc6s5)C(=O)N43)C3(CC3)C2=O)cc1=O (some centres unmarked) [Compound 586]	5.52 to 6.52
N#C[C@H]1CN(C(=O)[C@@H]2CC[C@@H]3CCCC[C@H](NC(=O)c4cc5cc(CP(=O)(O)O)ccc5s4)C(=O)N32)C[C@@H]1c1cc[nH]c(=O)c1 (single isomer, unassigned) [Compound 878]	5.52 to 6.52
CC1(c2ccccn2)CN(C(=O)[C@@H]2CC[C@@H]3CCC[C@H](NC(=O)c4cc5cc(CP(=O)(O)O)ccc5s4)C(=O)N32)C1 [Compound 548]	4.52 to 5.52
C[C@H]1C[C@H]2CC[C@@H](C(=O)N3C[C@H](c4ccccc4)[C@@H](C#N)C34CC4)N2C(=O)[C@@H](NC(=O)c2cc3cc([C@H](F)P(=O)(O)O)ccc3s2)C1 [Compound 849]	≥ 6.52

Now for the compound whose pIC50 we want.
## Input Entry N#Cc1cccc(C2CN(C(=O)[C@@H]3CC[C@@H]4CCC[C@H](NC(=O)c5cc6cc(C(F)(F)P(=O)(O)O)ccc6s5)C(=O)N43)C2)n1 [Compound 811] : reported pIC50 = ?
## Output 5.52 to 6.52
